Value source: patent US11814435B2

target: Cyno BCMA; assay: Kinetics and affinity of cyno BCMA/human IgG interactions by SPR (Bio-Rad Proteon XPR36); type: binding, cynomolgus; details: 37° C.
Property measured: kd Cyno (s⁻¹)
Write the answer as a number in s⁻¹, unit excluded.

* COMBO_Rd4_6 nM_C09: anti-BCMA antibody (antibody, V domains shown) VH: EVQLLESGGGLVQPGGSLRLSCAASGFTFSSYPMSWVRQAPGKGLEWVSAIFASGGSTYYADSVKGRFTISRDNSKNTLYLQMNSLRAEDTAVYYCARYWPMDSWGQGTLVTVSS VL: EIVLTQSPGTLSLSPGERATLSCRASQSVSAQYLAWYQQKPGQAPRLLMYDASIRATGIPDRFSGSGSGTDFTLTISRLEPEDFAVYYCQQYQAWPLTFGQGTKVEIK | 0.000318

Incoming: For the molecule A02_Rd4_6 nM_C07: anti-BCMA antibody (antibody, V domains shown) VH: EVQLLESGGGLVQPGGSLRLSCAASGFTFSSYAMNWVRQAPGKGLEWVSAIGGSGGSLPYADSVKGRFTISRDNSKNTLYLQMNSLRAEDTAVYYCARYWPMDSWGQGTLVTVSS VL: EIVLTQSPGTLSLSPGERATLSCRASQSVSPYYLAWYQQKPGQAPRLLMYDASIRATGIPDRFSGSGSGTDFTLTISRLEPEDFAVYYCQQYERWPLTFGQGTKVEIK , report kd Cyno.
Outgoing: 0.000786

Incoming: For the molecule A02_Rd4_0.6 nM_C06: anti-BCMA antibody (antibody, V domains shown) VH: EVQLLESGGGLVQPGGSLRLSCAASGFTFSSYAMNWVRQAPGKGLEWVSAISDSGGSAWYADSVKGRFTISRDNSKNTLYLQMNSLRAEDTAVYYCARYWPMSLWGQGTLVTVSS VL: EIVLTQSPGTLSLSPGERATLSCRASQSVSVLYLAWYQQKPGQAPRLLMYDASIRATGIPDRFSGSGSGTDFTLTISRLEPEDFAVYYCQQYQRWPLTFGQGTKVEIK , report kd Cyno.
Outgoing: 0.000105
